Data credit: patent US20110039770A1

target: T1, PKC-βI (purified isoform) (Homo sapiens (Human), UniProt P05771 2-671); test: competitive ELISA, coated purified PKC-βI, vs anti-PKC βI (SC-209); PRE 100 µM
T1 construct: also called PKC-beta I; PKC beta 1
T1 sequence (P05771 2-671 limits assumed): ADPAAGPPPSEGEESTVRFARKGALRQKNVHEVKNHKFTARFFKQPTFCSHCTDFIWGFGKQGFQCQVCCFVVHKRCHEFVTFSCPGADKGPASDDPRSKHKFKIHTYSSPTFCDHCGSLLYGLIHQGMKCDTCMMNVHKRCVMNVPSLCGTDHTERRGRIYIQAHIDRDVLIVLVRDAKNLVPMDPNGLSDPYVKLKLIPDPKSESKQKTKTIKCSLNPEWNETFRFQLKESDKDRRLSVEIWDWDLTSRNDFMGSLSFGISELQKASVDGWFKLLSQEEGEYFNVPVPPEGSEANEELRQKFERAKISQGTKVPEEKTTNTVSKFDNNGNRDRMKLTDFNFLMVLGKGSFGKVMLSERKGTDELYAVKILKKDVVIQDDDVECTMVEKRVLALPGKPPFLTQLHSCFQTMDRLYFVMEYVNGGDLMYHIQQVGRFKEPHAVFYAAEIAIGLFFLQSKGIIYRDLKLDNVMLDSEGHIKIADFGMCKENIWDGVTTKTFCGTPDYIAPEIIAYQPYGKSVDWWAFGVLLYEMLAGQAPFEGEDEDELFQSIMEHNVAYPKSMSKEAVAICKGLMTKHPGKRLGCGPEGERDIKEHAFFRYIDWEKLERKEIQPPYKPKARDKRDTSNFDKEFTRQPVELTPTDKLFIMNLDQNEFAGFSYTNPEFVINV
assay.endpoint: relative binding capacity (100-%n, DMSO subtracted) (%)
Answers are plain numbers, in %.

Reference set, count: 2
Ac-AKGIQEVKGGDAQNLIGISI-NH2 (also called peptide PRE 3) [PRE 3] = 22.5
Ac-RDAQNLIGISI-NH2 (also called peptide PRE 11) [PRE 11] = 14.2

# batch: return relative binding capacity (100-%n, DMSO subtracted) for each of the 2 binders below
1. Ac-KDAQNLIGISI-NH2 (also called peptide PRE 4) [PRE 4]
2. Ac-KDANQLIGISI-NH2 (also called peptide PRE 6) [PRE 6]

### Response
1: 15.7; 2: 7.93
